B1: FERM and PDZ domain-containing protein 4, residues 75 to 154; numbered along this chain, Q14CM0 (parent)
chain: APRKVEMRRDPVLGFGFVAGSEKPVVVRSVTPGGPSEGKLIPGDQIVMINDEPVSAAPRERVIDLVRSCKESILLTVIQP

- Variants of: B1
- experiment summary: abundance fitness (aPCA) (normalised: wild type 0, dead -1); higher = more abundant; growth selection in yeast, the domain comes from the species named
- stated conditions: Homo sapiens
Readings of abundance fitness for the listed variants
Give the value as a plain number.

// below: answered variants
>  <variant>
G20D

>  <endpoint label>
abundance fitness

>  <result value>
0.017

$$$$
>  <variant>
C69S

>  <endpoint label>
abundance fitness

>  <result value>
-0.025

$$$$
>  <variant>
I41A

>  <endpoint label>
abundance fitness

>  <result value>
0.005

$$$$
>  <variant>
F17K

>  <endpoint label>
abundance fitness

>  <result value>
-0.842

$$$$

Q. Could you tell me which abundance fitness is on file for `D44S` ?
A. -0.264

Q. // query abundance fitness value for entry `I78N`
A. -0.049

Q. For the variant shown here, `S72W` , give the reported abundance fitness.
A. -0.234

Q. Entry `Q79C` : reported abundance fitness = ?
A. 0.012

Q. Given the entry `R3W` , report its measured abundance fitness.
A. -0.769

Q. State the recorded abundance fitness for this entry: `S29F`
A. -0.197

Q. // query abundance fitness value for entry `R9K`
A. -0.031

Q. What value of abundance fitness has been reported for the following variant? `V54A`
A. -0.271

Q. Given the variant `K23N` , what is its reported abundance fitness?
A. 0.015

Q. Sample `I41N` — what was its abundance fitness?
A. 0.032

Q. Look up abundance fitness: `I49M`
A. -0.529
